biological target: Mitogen-activated protein kinase 1 (Homo sapiens, UniProt P28482); experiment: DRUGMATRIX: Protein Serine/Threonine Kinase, ERK2 enzyme inhibition (substrate: Myelin Basic Protein); parameters: species or system Escherichia coli; details: Not Active = under 50% inhibition at 10 µM; read-out: IC50
Sequence (P28482 whole entry): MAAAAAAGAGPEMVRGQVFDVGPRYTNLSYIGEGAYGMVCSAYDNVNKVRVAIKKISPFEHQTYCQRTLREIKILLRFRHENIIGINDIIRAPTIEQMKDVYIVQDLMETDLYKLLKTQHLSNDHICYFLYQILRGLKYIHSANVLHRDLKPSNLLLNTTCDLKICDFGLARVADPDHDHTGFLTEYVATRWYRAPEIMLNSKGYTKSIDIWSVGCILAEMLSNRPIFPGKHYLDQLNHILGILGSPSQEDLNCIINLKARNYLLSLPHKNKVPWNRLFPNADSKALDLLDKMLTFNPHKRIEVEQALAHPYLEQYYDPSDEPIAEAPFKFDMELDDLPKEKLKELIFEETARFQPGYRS
measurement kind: IC50 (µM)
The reply should contain only the number, in µM.

Past entries and their recorded results:
O=C(O)COC(=O)Cc1ccccc1Nc1c(Cl)cccc1Cl [ACECLOFENAC] ... 5.93
O=C(O)c1cc(/N=N/c2ccc(S(=O)(=O)Nc3ccccn3)cc2)ccc1O [SULFASALAZINE] ... 6.33
Cc1ccc(Cl)c(Nc2ccccc2C(=O)O)c1Cl [MECLOFENAMIC ACID] ... 3.14

// next entry
Task item: Field request: IC50 | item: CC1=C(/C=C/C(C)=C/C=C/C(C)=C/C(=O)O)C(C)(C)CCC1 [TRETINOIN]
Reply: 0.576

* * *

target: Cytochrome P450 2C9 (Homo sapiens); conditions: bti-tn-5b1-4; note: in other assays of this panel Not Active means under 50% inhibition at 10 µM
Sequence (P11712 whole entry): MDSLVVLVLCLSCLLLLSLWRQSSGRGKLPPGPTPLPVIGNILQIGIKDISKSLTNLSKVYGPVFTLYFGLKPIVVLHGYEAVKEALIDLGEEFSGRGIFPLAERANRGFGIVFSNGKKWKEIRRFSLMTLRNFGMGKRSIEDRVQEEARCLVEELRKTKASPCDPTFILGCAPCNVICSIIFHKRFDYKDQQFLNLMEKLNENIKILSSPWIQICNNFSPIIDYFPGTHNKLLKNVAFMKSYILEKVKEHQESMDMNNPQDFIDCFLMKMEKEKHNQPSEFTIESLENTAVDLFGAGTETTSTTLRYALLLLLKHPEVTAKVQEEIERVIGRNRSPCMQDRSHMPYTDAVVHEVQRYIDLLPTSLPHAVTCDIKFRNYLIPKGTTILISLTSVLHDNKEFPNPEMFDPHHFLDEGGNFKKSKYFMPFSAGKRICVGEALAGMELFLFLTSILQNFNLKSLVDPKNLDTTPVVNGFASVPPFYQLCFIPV
measurement kind: IC50

CO[C@@]12[C@H](COC(N)=O)C3=C(C(=O)C(C)=C(N)C3=O)N1C[C@@H]1N[C@@H]12 ... Not Active
OC[C@H]1O[C@@H]2O[C@H]3[C@H](O)[C@@H](O)[C@@H](O[C@H]4[C@H](O)[C@@H](O)[C@@H](O[C@H]5[C@H](O)[C@@H](O)[C@@H](O[C@H]6[C@H](O)[C@@H](O)[C@@H](O[C@H]7[C@H](O)[C@@H](O)[C@@H](O[C@H]8[C@H](O)[C@@H](O)[C@@H](O[C@H]1[C@H](O)[C@H]2O)O[C@@H]8CO)O[C@@H]7CO)O[C@@H]6CO)O[C@@H]5CO)O[C@@H]4CO)O[C@@H]3CO ... Not Active

* * *

test: DRUGMATRIX: Atrial Natriuretic Factor (ANF) radioligand binding (ligand: [125I] ANF (rat)); assay type: cell membranes, Cavia porcellus, Dunkin-Hartley, Adrenal gland, Membrane; conditions: Not Active = under 50% inhibition at 10 µM
measurement kind: IC50

Past entries and their recorded results:
COc1cc(/C=C/C(=O)O)ccc1O [FERULATE] ... Not Active
CC1=C(/C=C/C(C)=C/C=C/C(C)=C/C(=O)O)C(C)(C)CCC1 [TRETINOIN] ... Not Active
O=c1[nH]cnc2c1ncn2[C@H]1CC[C@@H](CO)O1 [DIDANOSINE] ... Not Active
CC12CCC(CC1=O)C2(C)C (centres undefined) [CAMPHOR] ... Not Active

Task item: Field request: IC50 | item: O=C(O)c1ccccc1 [BENZOIC ACID]
Reply: Not Active

Task item: Field request: IC50 | item: CC1(C)[C@H](C(=O)O)N2C(=O)C[C@H]2S1(=O)=O [SULBACTAM]
Reply: Not Active

* * *

molecular target: 5-hydroxytryptamine receptor 6 (Homo sapiens, UniProt P50406); format: cell membranes, HeLa, Membrane; conditions: hela; note: in other assays of this panel Not Active means under 50% inhibition at 10 µM
Sequence (P50406 whole entry): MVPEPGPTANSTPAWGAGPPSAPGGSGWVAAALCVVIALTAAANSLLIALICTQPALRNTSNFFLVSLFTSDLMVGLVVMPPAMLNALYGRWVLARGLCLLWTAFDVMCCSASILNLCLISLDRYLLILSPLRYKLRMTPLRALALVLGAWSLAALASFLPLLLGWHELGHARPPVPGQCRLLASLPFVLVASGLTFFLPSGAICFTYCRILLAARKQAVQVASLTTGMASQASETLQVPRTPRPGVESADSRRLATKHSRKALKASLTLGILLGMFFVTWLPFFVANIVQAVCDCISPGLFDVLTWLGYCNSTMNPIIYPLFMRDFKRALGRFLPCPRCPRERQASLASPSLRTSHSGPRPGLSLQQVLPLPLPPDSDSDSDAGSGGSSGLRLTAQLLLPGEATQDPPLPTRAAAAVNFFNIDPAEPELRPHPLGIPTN
measurement kind: IC50

Past entries and their recorded results:
CC1(C)[C@H](C(=O)O)N2C(=O)C[C@H]2S1(=O)=O [SULBACTAM] ... Not Active
C[N+]1(C)[C@@H]2C[C@@H](OC(=O)[C@H](CO)c3ccccc3)C[C@H]1[C@@H]1O[C@@H]12.[Br-] [METHSCOPOLAMINE BROMIDE] ... Not Active
CO[C@@H]1[C@@H](OC)[C@H](C)[C@@](O)(CC(=O)O)O[C@H]1[C@H](C)[C@H]1O[C@@]2(CC[C@@](C)([C@H]3CC[C@@](C)([C@@H]4O[C@@H]([C@H]5O[C@](C)(O)[C@H](C)C[C@@H]5C)C[C@@H]4O[C@@H]4C[C@H](OC)[C@@H](OC)[C@H](C)O4)O3)O2)C[C@H](O)[C@H]1C.N [MADURAMICIN] ... Not Active
CO[C@@]12[C@H](COC(N)=O)C3=C(C(=O)C(C)=C(N)C3=O)N1C[C@@H]1N[C@@H]12 [MITOMYCIN] ... Not Active

Task item: Field request: IC50 | item: Oc1ccccc1 [PHENOL]
Reply: Not Active

Task item: Field request: IC50 | item: O=C(NCCN1CCOCC1)c1ccc(Cl)cc1 [MOCLOBEMIDE]
Reply: Not Active

Task item: Field request: IC50 | item: "c1ccc(Cn2ccnc2)cc1"
Reply: Not Active

* * *

biological target: UniProt O76074; test: DRUGMATRIX: Phosphodiesterase PDE5 enzyme inhibition (substrate: [3H]cGMP + cGMP); assay type: tissue-based, Platelet; conditions: platelet; Not Active = under 50% inhibition at 10 µM
measurement kind: IC50

CNCCCC12CCC(c3ccccc31)c1ccccc12 ... Not Active
CS(=O)(=O)c1ccc(C2=C(c3ccccc3)C(=O)OC2)cc1 ... Not Active
CC(C)(c1ccc(O)cc1)c1ccc(O)cc1 ... Not Active
O=C(O)CO ... Not Active
C[N+]1(C)[C@@H]2C[C@@H](OC(=O)[C@H](CO)c3ccccc3)C[C@H]1[C@@H]1O[C@@H]12.[Br-] [METHSCOPOLAMINE BROMIDE] ... Not Active

Task item: Field request: IC50 | item: "O=C(O)c1ccccc1"
Reply: Not Active

Task item: Field request: IC50 | item: COc1ccccc1OCCNCC(O)COc1cccc2[nH]c3ccccc3c12 (centres undefined)
Reply: Not Active

Task item: Field request: IC50 | item: "O=C(O)COC(=O)Cc1ccccc1Nc1c(Cl)cccc1Cl"
Reply: Not Active

Task item: Field request: IC50 | item: CCOc1cc(N)c(Cl)cc1C(=O)NCC1CN(Cc2ccc(F)cc2)CCO1 (centres undefined) [MOSAPRIDE]
Reply: Not Active

* * *

Target: UniProt P04150
Sequence (P04150 whole entry): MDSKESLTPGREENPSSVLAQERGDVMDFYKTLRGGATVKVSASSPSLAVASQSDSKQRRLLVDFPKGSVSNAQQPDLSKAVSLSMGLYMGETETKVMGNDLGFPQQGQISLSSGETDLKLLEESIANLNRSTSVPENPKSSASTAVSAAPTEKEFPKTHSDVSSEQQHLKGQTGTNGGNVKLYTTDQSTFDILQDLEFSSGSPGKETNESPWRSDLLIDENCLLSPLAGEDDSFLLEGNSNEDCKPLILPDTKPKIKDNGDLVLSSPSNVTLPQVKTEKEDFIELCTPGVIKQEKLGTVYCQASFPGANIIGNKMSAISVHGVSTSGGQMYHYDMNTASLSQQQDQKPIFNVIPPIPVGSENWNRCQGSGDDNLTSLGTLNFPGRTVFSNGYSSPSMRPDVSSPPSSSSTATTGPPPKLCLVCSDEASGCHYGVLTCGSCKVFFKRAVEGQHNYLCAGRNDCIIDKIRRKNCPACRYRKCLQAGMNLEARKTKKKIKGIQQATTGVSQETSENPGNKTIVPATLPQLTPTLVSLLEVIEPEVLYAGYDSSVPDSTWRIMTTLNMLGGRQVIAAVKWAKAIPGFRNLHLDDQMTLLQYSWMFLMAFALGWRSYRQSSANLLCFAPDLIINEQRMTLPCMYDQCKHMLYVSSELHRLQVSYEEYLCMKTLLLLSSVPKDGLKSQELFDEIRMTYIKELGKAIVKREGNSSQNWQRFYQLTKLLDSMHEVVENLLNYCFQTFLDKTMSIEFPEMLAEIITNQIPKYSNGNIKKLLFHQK
Test: biochemical
measurement kind: IC50

Task item: Field request: IC50 | item: CC(=O)O[C@]1(C(C)=O)CC[C@H]2[C@@H]3C[C@H](C)C4=CC(=O)CC[C@]4(C)[C@H]3CC[C@@]21C [MEDROXYPROGESTERONE ACETATE]
Reply: 19 nM

* * *

assay: DRUGMATRIX: Sodium/nucleoside co-transporter radioligand binding (ligand: nitrobenzylthioinosine); format: cell membranes, Cavia porcellus, Dunkin-Hartley, Cerebral cortex, Membrane; details: Not Active = under 50% inhibition at 10 µM
measurement kind: IC50

Past entries and their recorded results:
OC[C@@H](O)[C@@H](O)[C@H](O)[C@H](O)CO ... Not Active
O=C1c2ccccc2C(=O)C1c1ccccc1 ... Not Active
CN1C[C@H](CNC(=O)OCc2ccccc2)C[C@@H]2c3cccc4c3c(cn4C)C[C@H]21 ... Not Active
O=C1CN(/N=C/c2ccc([N+](=O)[O-])o2)C(=O)N1 ... Not Active
CC(=O)O[C@]1(C(C)=O)CC[C@H]2[C@@H]3C[C@H](C)C4=CC(=O)CC[C@]4(C)[C@H]3CC[C@@]21C [MEDROXYPROGESTERONE ACETATE] ... Not Active
CC(N)C12CC3CC(CC(C3)C1)C2 (stereo not drawn) ... Not Active
CC12CCC(CC1=O)C2(C)C (stereo not drawn) ... Not Active
Nc1nc(N)c2nc(-c3ccccc3)c(N)nc2n1 ... Not Active
c1ccc2sc(SSc3nc4ccccc4s3)nc2c1 [BENZOTHIAZYL DISULFIDE] ... Not Active
CCN1CCCC1CNC(=O)c1cc(S(N)(=O)=O)ccc1OC (stereo not drawn) [SULPIRIDE] ... Not Active

Task item: Field request: IC50 | item: "CN1C(=O)OC(C)(C)C1=O"
Reply: Not Active

Task item: Field request: IC50 | item: NCC(CC(=O)O)c1ccc(Cl)cc1 (stereo not drawn)
Reply: Not Active
